- ASSAY_COMMENT: HEp-2 cell cytotoxicity, dose response, cytotoxicity control for RSV inhibitor project, HTS (AID 2410)
- Format: functional
- TEST_SETTINGS: human respiratory syncytial virus
The source made the active and inactive calls.
Entries and their measured CC50 follow.

C[C@]12CC[C@H]3C(=CCc4cc(O)ccc43)[C@@H]1CCC2=O	22.6 µM (active)

Record summary for CC1CC(C)CN(C(=O)c2cc3cc(Br)cc(Br)c3o2)C1 (configuration not stated) : reported CC50 = 18.9 µM (active)

Documented CC50 of CCOc1ccccc1NC(=O)CSc1nc2c(c(=O)n1C)SC(C)C2 (configuration not stated) : 35.2 µM (active)

Note to self: CC50 recorded for CCOc1ccccc1NC(=O)Nc1ccc(CC#N)cc1 was 28 µM (active)

The value of CC50 measured for the molecule C/C(=N\c1ccccc1C)C1=C(O)SCC1=O turned out to be 32.3 µM (active)

Looking up CC1CCCC(NC(=O)C2CCCN2S(=O)(=O)c2cccc3nsnc23)C1C (configuration not stated) , I see its CC50 listed as 23.6 µM (active)

Summary for this molecule, O=C(O)c1cc2c(ccc3ccccc32)[nH]1 : CC50 is 30.9 µM (active)

* * *

In what follows, each item is paired with its AC50 for Cytochrome P450 2C9 (Homo sapiens, UniProt P11712).

CCOC(=O)[C@@H](O)Cc1cnc2ccccc2n1	3.98 µM (inconclusive)
Cc1ccc(S(=O)(=O)NCC(=O)N(CC(=O)NCc2ccco2)Cc2cccs2)cc1	15.8 µM (inconclusive)

# context switch: different molecule, same AC50
Cytochrome P450 2C9 (Homo sapiens, UniProt P11712) assay, molecule CS(=O)(=O)N1CCC[C@@]2(CCN(c3ccccc3)C2)C1 , recorded AC50 = 25.1 µM (inconclusive)

* * *

# Lookup of reported CC50 keyed by entry
- Test system: Vero
- ASSAY_COMMENT: cells
- Format: functional
- TEST_SETTINGS: Chlorocebus sabaeus
The source made the active and inactive calls.

CCN(CC)CCN1C(=O)/C(=C\c2ccc(Cl)c([N+](=O)[O-])c2)S/C1=N\c1ccc(OC)cc1	15.7 µM (active)

Reported CC50 ( CN(C)CCNC=C(C(=O)Nc1ccc(Cl)cc1Cl)C(=O)Nc1ccc(Cl)cc1Cl ) = > 25 µM (active)

Documented CC50 of Cc1ccc(OCC(=O)NNC(=S)NC(=O)c2ccc(Br)o2)c(C)c1 : > 25 µM (active)

Query O=C(NCc1cccnc1)/C(=C\c1ccc(-c2cccc(Cl)c2)o1)S(=O)(=O)c1ccccc1 yields CC50 of 9.17 µM (active)

Entry N#CCn1c(CCl)nc2ccccc2c1=O , CC50 reported as 14.9 µM (active)

* * *

Listed here are molecules together with their documented EC50.
- TARGET_UNDER_TEST: Streptokinase A (Streptococcus pyogenes serotype M1)
- Sequence (P10520 whole entry): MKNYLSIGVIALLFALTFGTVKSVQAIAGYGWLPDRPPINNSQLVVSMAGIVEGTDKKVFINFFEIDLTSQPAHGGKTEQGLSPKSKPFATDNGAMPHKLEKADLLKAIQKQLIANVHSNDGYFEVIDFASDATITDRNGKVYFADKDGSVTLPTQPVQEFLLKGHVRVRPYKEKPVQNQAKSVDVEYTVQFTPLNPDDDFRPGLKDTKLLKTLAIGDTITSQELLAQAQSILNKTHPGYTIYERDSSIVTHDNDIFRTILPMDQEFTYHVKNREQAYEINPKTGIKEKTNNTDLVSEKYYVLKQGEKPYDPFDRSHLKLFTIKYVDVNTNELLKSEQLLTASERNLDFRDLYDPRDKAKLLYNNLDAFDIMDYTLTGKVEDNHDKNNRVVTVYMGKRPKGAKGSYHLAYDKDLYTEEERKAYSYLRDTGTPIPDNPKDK
- ASSAY_COMMENT: S. pyogenes streptokinase expression inhibitors, potency, dose response, plasminogen activation absorbance, OD405 (AID 1914);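 further: secreted streptokinase activity via plasminogen activation per viability signal from cell pellet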
- Format: functional, Streptococcus pyogenes M1 GAS
The source made the active and inactive calls.

Example results:
C/C(=N\NC(=O)c1ccccc1O)C1C(=O)c2ccccc2C1=O	> 150 µM (not active)
CC(C)(C)c1ccc(OCCCC(=O)NC2=NCCS2)cc1	> 150 µM (not active)
COc1ccc(-c2nn(-c3ccccc3)cc2/C=C2/SC(=S)N(CCC(=O)O)C2=O)cc1	> 150 µM (not active)
C=C(C)COc1ccc(-c2n[nH]c(C)c2-c2ccccc2)c(O)c1	7.78 µM (active)
CCn1cc(CN2CCC(C(=O)Nc3ccc(Oc4cccnc4)cc3)CC2)cn1	> 150 µM (not active)

What the record says about O=C(O)CN1C(=O)/C(=C\c2cc(Br)ccc2OCc2ccc(Cl)cc2)SC1=S : EC50 is > 50 µM (not active)

Entry Cc1ccc2nc(N3C(=O)CNC3=S)sc2c1 , EC50 reported as > 150 µM (not active)

The recorded EC50 for entry CCOC(=O)C(C(=O)OCC)c1cc(Br)c2noc3c2c1C(=O)c1ccccc1-3 equals 11.9 µM (active)

Lab note: measured EC50 of CN(C)CCNC=C(C(=O)Nc1ccc(Cl)cc1Cl)C(=O)Nc1ccc(Cl)cc1Cl was > 150 µM (not active)

Entry CCCCc1ccc(NC(S)=NCCc2ccc(F)cc2)cc1 ; EC50 = 45 µM (active)

# molecule Cc1ccc(C2Oc3ccccc3C3=C2C(c2cccs2)n2ncnc2N3)cc1 (stereo not given) ; its EC50 = > 150 µM (not active)

EC50 in this record for CCc1cc(C(=O)N2CCCC(CCC(=O)NCc3cccc(OC)c3)C2)no1 (stereo not given) : > 150 µM (not active)

Kindly note the recorded EC50 for Cc1ccc(C(=O)/C=C/C(=O)c2ccc(C)cc2)cc1 , which is 0.653 µM (active)

# EC50 of Oc1c2c(nc3c(-c4ccc(Cl)cc4)cnn13)CCC2 = > 150 µM (not active)

Looking up COc1ccc(NS(=O)(=O)c2ccc3ccccc3c2)c2ncccc12 , I found its EC50 recorded as > 150 µM (not active)
